test: qHTS assay to test for compound auto fluorescence at 590 nm (red) in HepG2 cell free culture (AID 720684); conditions: cell-free medium autofluorescence, red 540/590 nm; series mostly up to 91.3 µM
Active and inactive are the calls of the source. Calls come from the whole dose curve; as a rule, active = well fitted curve in the direction sought with a large enough effect in the repeat runs; inconclusive = weak or mixed curves; inactive = flat fitted curve, though single readings scatter.
measured parameter: fluorescence, % of Rose Bengal

Use these answered entries as a reference point.
>  <compound>
CC1=NN(c2cc(Cl)c(S(=O)(=O)O)cc2Cl)C(=O)C1N=Nc1ccc(S(=O)(=O)O)cc1 (stereo unspecified)

>  <fluorescence, % of Rose Bengal>
inactive

$$$$
>  <compound>
CN1CCN(C2=Nc3cc(F)ccc3Cc3ccccc32)CC1

>  <fluorescence, % of Rose Bengal>
inactive

$$$$
>  <compound>
CC1=C(CC(=O)O)c2cc(F)ccc2/C1=C\c1ccc(S(C)(=O)=O)cc1

>  <fluorescence, % of Rose Bengal>
inactive

$$$$
>  <compound>
CC1(C)C(=O)N(Cl)C(=O)N1Br

>  <fluorescence, % of Rose Bengal>
inactive

$$$$
>  <compound>
CCc1nnc(NS(=O)(=O)c2ccc(N)cc2)s1

>  <fluorescence, % of Rose Bengal>
inactive

$$$$

// next item, fluorescence, % of Rose Bengal requested
Please look up its fluorescence, % of Rose Bengal: `COc1cc(Cl)ccc1Cl` inactive
